System: SW-620
Assay: NCI tumour cell line growth inhibition, 48 h
The source made the active and inactive calls. Rule as the data show it: active = GI50 up to about 1.1 µM and inactive = higher.
Measured GI50 values are reported for all entries that follow.

Incoming: Lab note: need GI50 for C#C[C@]1(O)CCC2C3CCc4cc(Oc5nc(F)nc(-c6c7cc8ccccc8cc7c7n6CCS7)n5)ccc4C3CCC21C (stereo partly specified) on SW-620, anyone have it?
Outgoing: 44.3 µM (inactive)

---
Incoming: Lab note: need GI50 for O=C1CSC2(CC(/C=C/c3ccccc3O)=NN2c2cccc(S(=O)(=O)O)c2)N1c1nc2ccccc2s1 (stereo unspecified) on SW-620, anyone have it?
Outgoing: 37.3 µM (inactive)

Incoming: Lab note: need GI50 for CCOc1ccccc1C=C1c2ccccc2C(=O)c2ccccc21 on SW-620, anyone have it?
Outgoing: 3.72 µM (inactive)

Incoming: Lab note: need GI50 for Nc1ccc(C(=O)Nc2ccccc2N)cc1 on SW-620, anyone have it?
Outgoing: 19.2 µM (inactive)

Incoming: Lab note: need GI50 for Cc1cc2c(=O)cc(-c3ccc(Cl)cc3)oc2c(C(=O)O)c1C on SW-620, anyone have it?
Outgoing: > 100 µM (inactive)

Incoming: Lab note: need GI50 for Cc1cc(CC(O)(C(F)(F)F)C(F)(F)F)cc(CC(O)(C(F)(F)F)C(F)(F)F)n1 on SW-620, anyone have it?
Outgoing: > 100 µM (inactive)

Incoming: Lab note: need GI50 for Cc1ccc(C)c(N2C(=O)C(=O)C(c3nc4ccccc4s3)/C(=N\c3cccc4c(=O)[nH][nH]c(=O)c34)C2=O)c1 (stereo unspecified) on SW-620, anyone have it?
Outgoing: > 100 µM (inactive)

Incoming: Lab note: need GI50 for CCCOc1ccc2sc(NC(=O)c3cc([N+](=O)[O-])cc([N+](=O)[O-])c3)nc2c1 on SW-620, anyone have it?
Outgoing: 31 µM (inactive)

Incoming: Lab note: need GI50 for C/C=C1\CN2CCc3c([nH]c4ccccc34)C2C=C1CCO (stereo unspecified) on SW-620, anyone have it?
Outgoing: > 340 µM (inactive)

Incoming: Lab note: need GI50 for C[C@@H]1CC[C@]2(C)C3(C)CC[C@]2(OC3=O)[C@@]12CC(c1ccoc1)OC2=O (stereo partly specified) on SW-620, anyone have it?
Outgoing: 26.9 µM (inactive)

Incoming: Lab note: need GI50 for CCCCCC(C[N+]1(C)CCOCC1)C(=O)/C=C/c1ccccc1 (stereo unspecified) on SW-620, anyone have it?
Outgoing: 2.62 µM (inactive)

Incoming: Lab note: need GI50 for O=C1NC(=O)[C@@]2(CC[C@@H](O)C2)c2ccncc21 on SW-620, anyone have it?
Outgoing: > 100 µM (inactive)

Incoming: Lab note: need GI50 for C=CCOC(=O)C[C@H](NC(=O)[C@H](Cc1ccc(O)cc1)NCC(F)(F)F)C(=O)OCC=C on SW-620, anyone have it?
Outgoing: 54.3 µM (inactive)

----------
Tested on: HCT-116
Assay: NCI tumour cell line growth inhibition, 48 h
Activity calls are given as the source filed them. Cut-off read from the data, not from the text of the source: active = GI50 up to about 1.1 µM and inactive = higher.
Respond using exactly one of the listed classes: true (active), false (inactive)

Incoming: Tell me the recorded outcome of this test for CCOC(=O)c1cn2c(n1)sc1cc(F)ccc12 .
Outgoing: false

Incoming: Tell me the recorded outcome of this test for Cc1ccc(S(=O)(=O)N/N=C/c2oc(-c3ccncc3)c(-c3ccncc3)c2[N+](=O)[O-])cc1 .
Outgoing: false

Incoming: Tell me the recorded outcome of this test for COC(=O)CNC(=O)/C=C/[C@H](O[Si](C)(C)C(C)(C)C)[C@H](/C=C/C(=O)NCC(=O)OC)O[Si](C)(C)C(C)(C)C .
Outgoing: false

---
Incoming: Tell me the recorded outcome of this test for CC(C)(c1ccccc1)c1ccc(Oc2ccc3c(c2)-c2nc-3nc3[nH]c(nc4nc(nc5[nH]c(n2)c2ccc(Oc6ccc(C(C)(C)c7ccccc7)cc6)cc52)-c2cc(Oc5ccc(C(C)(C)c6ccccc6)cc5)ccc2-4)c2ccc(Oc4ccc(C(C)(C)c5ccccc5)cc4)cc32)cc1 .
Outgoing: false

Incoming: Tell me the recorded outcome of this test for COc1cc2c[n+](C)c3c4ccccc4ccc3c2cc1OC .
Outgoing: false

Incoming: Tell me the recorded outcome of this test for CCOC(=O)c1cc2c([N+](=O)[O-])c(N)ccc2s1 .
Outgoing: false

----------
Tested on: SF-295
Test: NCI tumour cell line growth inhibition, 48 h
Activity calls are given as the source filed them. Cut-off read from the data, not from the text of the source: active = GI50 up to about 1.1 µM and inactive = higher. Residues, ends and D or L forms follow the SMILES beside them. *: point of attachment. X38 = O=C(c1ccc(-c2ccc(Cl)cc2Cl)o1)*
Measured GI50 values are reported for all entries that follow.

Incoming: If you can, please state the reported GI50 value of COC(=O)C(CC(C)C)NC(=O)C(Cc1ccccc1)NC(=O)C1CCCN1C(=O)C(CO)NC(=O)c1ccc(-c2ccc(Cl)cc2Cl)o1 (stereo unspecified) (X38-SPFL-OMe; configuration not given here) .
Outgoing: 19.5 µM (inactive)

Incoming: If you can, please state the reported GI50 value of O=C(Cl)c1cc([N+](=O)[O-])cc([N+](=O)[O-])c1 .
Outgoing: > 100 µM (inactive)

Incoming: If you can, please state the reported GI50 value of CCCOc1ccc2sc(NC(=O)c3cc([N+](=O)[O-])cc([N+](=O)[O-])c3)nc2c1 .
Outgoing: 35.6 µM (inactive)

Incoming: If you can, please state the reported GI50 value of COc1ccc(C2OC2C(=O)C23CC4CC(CC(C4)C2)C3)cc1 (stereo unspecified) .
Outgoing: 33.7 µM (inactive)

Incoming: If you can, please state the reported GI50 value of O=C(CC(=O)N1N=C(N(c2ccccc2)c2ccccc2)CC1c1ccccc1)Nc1cccc(Cl)c1 (stereo unspecified) .
Outgoing: > 100 µM (inactive)

---
Incoming: If you can, please state the reported GI50 value of CCN1C(=O)C(=CN)C(=O)N(CC)C1=O .
Outgoing: > 100 µM (inactive)

Incoming: If you can, please state the reported GI50 value of CCOC(=O)c1ccc(-c2cccs2)n1C .
Outgoing: > 95.3 µM (inactive)

Incoming: If you can, please state the reported GI50 value of C/C(=N\Nc1nc2ccccc2[nH]1)c1ncccn1 .
Outgoing: 0.0453 µM (active)

Incoming: If you can, please state the reported GI50 value of Cc1ccnc2sc3ccccc3c(=O)c12 .
Outgoing: 50.1 µM (inactive)

Incoming: If you can, please state the reported GI50 value of Cc1cccc2c(N)c3cccc(C(=O)NCC[N+](C)(C)Cc4c([N+](=O)[O-])ncn4C)c3nc12 .
Outgoing: 25.4 µM (inactive)

----------
Measured GI50 values are reported for all entries that follow.
System: UO-31
Test: NCI tumour cell line growth inhibition, 48 h
Activity calls are given as the source filed them. No stated cut-off is given here; in the data, active = GI50 up to about 1.1 µM and inactive = higher.

# example entries with known answers
Incoming: Lab note: need GI50 for N=C(N)SCc1ccc(Cl)c2ccccc12.O=[N+]([O-])c1c(O)c(Cl)cc(Cl)c1Cl on UO-31, anyone have it?
Outgoing: 9.98 µM (inactive)

Incoming: Lab note: need GI50 for Cc1ccc(NC(=O)COC(=O)c2cccc3c(=O)c4ccccc4[nH]c23)cc1 on UO-31, anyone have it?
Outgoing: 5.35 µM (inactive)

Query compound follows.
Incoming: Lab note: need GI50 for COc1cc(OC)c2c(c1)C(=O)C(CC(C)O)=CC2=O (stereo not drawn) on UO-31, anyone have it?
Outgoing: 16.3 µM (inactive)

----------
Measured GI50 values are reported for all entries that follow.
System: XF498
Experiment: NCI tumour cell line growth inhibition, 48 h
Calls of active or inactive are those of the source. No stated cut-off is given here; in the data, active = GI50 up to about 1.1 µM and inactive = higher.

# example entries with known answers
Incoming: If you can, please state the reported GI50 value of O=C1Sc2sc(=S)sc2SC1c1ccccc1 (configuration not stated) .
Outgoing: 45.2 µM (inactive)

Incoming: If you can, please state the reported GI50 value of CC1=C(N2CC2)C(=O)c2nc3n(c2C1=O)CCC3OC(=O)CCl (configuration not stated) .
Outgoing: 0.0301 µM (active)

Incoming: If you can, please state the reported GI50 value of COC(=O)C1C(C)N1C (configuration not stated) .
Outgoing: 64.3 µM (inactive)

Incoming: If you can, please state the reported GI50 value of Clc1ccc(OCc2nnc3n2N=C(c2ccc(Br)cc2)CS3)cc1 .
Outgoing: 4.24 µM (inactive)

Incoming: If you can, please state the reported GI50 value of CC(=O)N1c2ccccc2N(C(C)=O)C1c1ccc(C2N(C(C)=O)c3ccccc3N2C(C)=O)[nH]1 .
Outgoing: > 100 µM (inactive)

---
Incoming: If you can, please state the reported GI50 value of S=P1(c2ccccc2)Nc2ccc(Cl)cc2N1 (configuration not stated) .
Outgoing: > 100 µM (inactive)

Incoming: If you can, please state the reported GI50 value of NS(=O)(=O)c1ccc(NC(=O)c2cccc3c(Nc4ccc(S(N)(=O)=O)cc4)c4ccccc4nc23)cc1 .
Outgoing: 27.2 µM (inactive)
